Cited source: PubChem BioAssay (NCI)

# Tested on: HOP-62 NSCLC
# test: NCI tumour cell line growth inhibition, 48 h
property_label: GI50

Problem: What GI50 value was documented for this molecule, `COc1cc2cc(C(=O)O)[nH]c2cc1OCc1ccccc1` ?
Result: > 100 µM

Problem: Next entry: `CCOC(=O)c1c(C)c2c(n1C)CSc1cc(S(=O)(=O)c3ccccc3)c(=O)[nH]c1-2`
Result: 31.5 µM

Problem: Quick one: `O=S(=O)(Nc1ccc(Cl)c(C(F)(F)F)c1)c1ccc(-c2cnc(C3CC3)o2)cc1`
Result: 0.615 µM

Problem: Same lookup for C/C=C(/C)C(=O)OC1C=C(CO)C(=O)C(OC(=O)/C(C)=C\C)C1C(C)C (centres undefined) , please.
Result: 2.03 µM

====

# Test system: LOX IMVI melanoma
# test: NCI tumour cell line growth inhibition, 48 h
property_label: TGI

Problem: Requested read-out: TGI. Entry: CC(C)NC(C)Cc1ccccc1 (centres undefined)
Result: > 100 µM

Problem: Then `CCOC(=O)c1c(C)c2c(n1C)CSc1cc(S(=O)(=O)c3ccccc3)c(=O)[nH]c1-2` ?
Result: > 100 µM

Problem: And then CC(C)C1OCC(CO)CO1 (centres undefined) , what is it?
Result: > 100 µM

Problem: Would you kindly repeat that for C[C@H](CCc1nc(C#N)c(N)o1)[C@H]1CC[C@H]2[C@@H]3[C@@H](O)CC4C[C@@H](O)CC[C@]4(C)[C@H]3C[C@@H](O)[C@]12C (some centres undefined) ?
Result: 29.2 µM

Problem: Query `O=C(Oc1ccc([N+](=O)[O-])cc1)N1CCC(C(O)(c2ccc3c(c2)OCO3)c2ccc3c(c2)OCO3)CC1` next
Result: > 100 µM

Problem: Field entry: `O=[N+]([O-])c1cc(Cl)ccc1S(=O)(=O)c1ccccc1`
Result: > 100 µM

Problem: Field entry: `O=C(O)[C@@H]1C[C@@H](O)CN1`
Result: > 100 µM

Problem: Next: `Cc1cccc(C)c1NC(=S)/N=C/C1=C(O)c2ccccc2C1=O`
Result: > 100 µM

Problem: Input Nc1nc(=O)n(C2OC(CO)C(O)C2O)cc1F (centres undefined)
Result: > 38 µM

====

Would you kindly list TGI for each of these compounds?
# Test system: HS 578T breast
# test: NCI tumour cell line growth inhibition, 48 h

Problem: So what's the measured TGI for this one? `CCCNc1[nH]c(C(C)=O)c(N)c1C(=S)Nc1ccccc1`
Result: > 100 µM

Problem: # iterate: O=C1Nc2ccccc2SC1C1SC(=S)N(Cc2ccccc2)C1=O (stereo not given)
Result: 31.2 µM

Problem: Do the same for C=CCCCC1(C)CCCCNC1=O (stereo not given) please
Result: > 10 µM

Problem: How about `C=CCSc1nn(CC=C)cc2ncnc1-2` ?
Result: > 100 µM

Problem: Again, but for `Nc1nc(Cl)c2ncn(Cc3ccccc3CCl)c2n1`
Result: 77.6 µM

Problem: Record: `Cc1ccnc2c1NC(=O)c1cccnc1N2C1CC1`
Result: > 100 µM

Problem: Note, next up: Nc1ncnc2c1ncn2CC(OCP(=O)(O)O)Oc1ccccc1 (stereo not given)
Result: > 100 µM

Problem: # repeat for `COc1cc(/C=C2\C(=O)N(c3c(Cl)cccc3Cl)c3ccccc32)cc(OC)c1O`
Result: > 27.8 µM

Problem: Another compound to look at: `O=[N+]([O-])c1cc(Cl)ccc1S(=O)(=O)c1ccccc1`
Result: > 100 µM

Problem: Thanks! And Cn1cc(-c2ccc(CCOC3CCCCO3)cc2)c2c(C#N)cccc21 (stereo not given) ?
Result: > 100 µM

Problem: Let us now turn to `COc1cc2cc(C(=O)O)[nH]c2cc1OCc1ccccc1`
Result: > 100 µM

Problem: Also need `C[C@]12CC[C@@H]3c4ccc(O)cc4CC[C@H]3[C@@H]1CC[C@@H]2NS(=O)(=O)c1cccc(Br)c1` , thanks.
Result: 24.8 µM

Problem: Then C=CC1=C(C)C2=NC1=CC1=NC(=C(CC)/C1=C/O)C=C1C=C3C(=O)C(C(=O)OC)C(=C4NC(=C2)C(C)C4CCC(=O)OC/C=C(\C)CCCC(C)CCCC(C)CCCC(C)C)C3=N1 (stereo not given) (tested in a mixture with another compound) ?
Result: > 100 µM

Problem: And what about the compound `Cc1cc(S(=O)(=O)Nc2nc(N)n(C)n2)c(S)cc1Cl` ?
Result: > 10 µM

Problem: Entry to check: `Cc1cc2c3c(ccc4ncc(c43)CN2c2ccc(NS(C)(=O)=O)cc2)[nH]1`
Result: > 100 µM

====

# Test system: LOX IMVI melanoma
# test: NCI tumour cell line growth inhibition, 48 h; in the data active = GI50 below about 0.43 µM; inactive = the rest
Permitted responses: active, inactive

Problem: # lookup: test call for `CS(=O)(=O)c1ccc(C(F)(F)F)cc1NC(=O)Nc1cnc(Oc2ccc(-c3cc(Cl)cnc3N)cc2)nc1`
Result: inactive

Problem: Repeat with CN(C)CCCC1(c2ccc(F)cc2)OCc2cc(-c3ccc4cc[nH]c4c3)ccc21 (stereo unspecified)
Result: inactive

Problem: # iterate: `O=C1C(Nc2ccccn2)=C(I)C(=O)c2ncccc21`
Result: active

Problem: Moving on to the next compound: `CCOC(=O)C(=Cc1ccc(Br)cc1)C(=O)OCC`
Result: inactive

Problem: Next entry: `O=C1c2cccc3c(N4CCN(c5ccc6c7c(cccc57)C(=O)N(CCN5CCNCC5)C6=O)CC4)ccc(c23)C(=O)N1CCN1CCNCC1`
Result: inactive

Problem: And `COc1ccc2cc(C(=O)/C=C/c3ccc(OC)c(OC)c3)ccc2c1` ?
Result: inactive

====

Consider the following compounds; for each one, report its TGI.
# Tested on: A498 renal
# test: NCI tumour cell line growth inhibition, 48 h

Problem: # input compound: C=CCCCC1(C)CCCCNC1=O (configuration not stated) ; wanted: its TGI
Result: > 10 µM

Problem: Then this compound: COC(=O)C1CCc2c(OC)ccc(OC)c2C1=O (configuration not stated)
Result: > 100 µM

Problem: Queued: `COc1ccc(/C=N/NC(=O)O)cc1`
Result: > 100 µM

Problem: Lookup `C(/COc1cccnc1)=N\NC1=NCCN1`
Result: > 100 µM

Problem: Same question, `O=C1c2cccc3c(N4CCN(c5ccc6c7c(cccc57)C(=O)N(CCN5CCNCC5)C6=O)CC4)ccc(c23)C(=O)N1CCN1CCNCC1` this time
Result: 36.4 µM

Problem: Let us now turn to `O=C(Oc1ccc([N+](=O)[O-])cc1)N1CCC(C(O)(c2ccc3c(c2)OCO3)c2ccc3c(c2)OCO3)CC1`
Result: > 100 µM

Problem: And the next one, `CCCCCCCCCCCCCCCCCC(=O)NCCCNCCCNC(=O)CCCCCCCCCCCCCCCCC` ?
Result: > 100 µM

Problem: Field entry: `CCCCCN(CCCCC)C(=O)[C@@H](CCC(=O)OCc1ccccc1)NC(=O)c1cc2ccccc2[nH]1`
Result: > 100 µM

Problem: Now the same for Nc1ncnc2c1ncn2CC(OCP(=O)(O)O)Oc1ccccc1 (configuration not stated)
Result: > 100 µM

Problem: Continue with CC(O[Si](C)(C)C(C)(C)C)[C@H](NC(=O)OCC(Cl)(Cl)Cl)C(=O)O (some centres not stated)
Result: > 100 µM

Problem: Now the same for `CS(=O)(=O)c1ccc(C(F)(F)F)cc1NC(=O)Nc1cnc(Oc2ccc(-c3cc(Cl)cnc3N)cc2)nc1`
Result: 5.09 µM

Problem: Likewise for `Cc1c(-c2ccccc2)n(C)c2cn[nH]c(=O)c12` ?
Result: > 100 µM

====

Could you please report measured TGI for the items listed next?
# Test system: HCC-2998 colon
# test: NCI tumour cell line growth inhibition, 48 h

Problem: Which measured TGI value corresponds to `CCN(C)S(=O)(=O)Nc1cccc(Nc2ncnc3cc(NC(=O)CCl)ccc23)c1Cl` ?
Result: 9.57 µM

Problem: Now try O=C1OC(=O)C2C3CCC(O3)C12 (stereo not given) .
Result: > 100 µM

Problem: What do you have for O=C1Nc2ccccc2SC1C1SC(=S)N(Cc2ccccc2)C1=O (stereo not given) ?
Result: 17.1 µM

Problem: What do you have for `CC(=O)Oc1ccc(-c2cc3ccccc3oc2=O)cc1OC(C)=O` ?
Result: 59.3 µM

Problem: Could you do the same for `Cc1cccc(C)c1NC(=S)/N=C/C1=C(O)c2ccccc2C1=O` , please?
Result: > 100 µM

Problem: Would you mind doing `COC(=O)c1ccccc1CC1Cc2cc3c(cc2C1)CCC3` as well?
Result: > 100 µM

Problem: Moving on to the next molecule: COC(=O)[C@]1(c2cc3ccccc3[nH]2)CC2CN(CC(=O)N(C)OC)C1C1OC(C)(C)OC21 (stereo not given in full)
Result: > 100 µM

Problem: Ok, now `O=C1OC(c2ccc([N+](=O)[O-])cc2)=N/C1=C\c1ccc(O)cc1`
Result: > 100 µM

Problem: Now the same for `N#Cc1c(N2CCOCC2)ncn(-c2ccccc2)c1=O`
Result: > 100 µM

Problem: What do we get for Nc1nc(=O)n(C2OC(CO)C(O)C2O)cc1F (stereo not given) ?
Result: > 100 µM
